Conditions: in 1,4-dioxane, 288.15 K
MEASURE_NAME: solubility (mole fraction)
Simply state the number, no unit and no words.

// query Answer with the recorded solubility (mole fraction) for the compound listed here: "Nc1cc(Cl)ccc1C(=O)O"
// result 0.0191

---

Details: in ethyl acetate, 285.65 K
MEASURE_NAME: solubility (mole fraction)
Simply state the number, no unit and no words.

// query Answer with the recorded solubility (mole fraction) for the compound listed here: "Nc1cc(Cl)ccc1C(=O)O"
// result 0.0161

---

Conditions: in n-propanol, 313.15 K
MEASURE_NAME: solubility (mole fraction)
Simply state the number, no unit and no words.

// query Answer with the recorded solubility (mole fraction) for the compound listed here: "Nc1cc(Cl)ccc1C(=O)O"
// result 0.0266
